Data origin, for the record: paper PMC5421785

Measured IC50 by item
# TGT: HLA-DRB1*04:01 (Homo sapiens, UniProt P01903+P01911, A100K/A169T/F76Y/I96L/K127E/L162R/M171V/N62H/P40V/Q125Y/R42H/S133A/S149N/S66Y/V115G/V209L/W38E)
# Construct: EBV transformed homozygous cell lines were used as sources of MHC molecules; endogenous in cells; host or cells: EBV transformed homozygous cell lines
# PROTOCOL NOTES: HLA class II peptide binding, inhibition of radiolabeled peptide binding to purified MHC
# PROTOCOL CONDITIONS: value of the wild-type (non-citrullinated) counterpart of the listed peptide; read-out: DRB1*04:01 binding capacity WT peptide (IC50 nM)
Square brackets hold non-standard residues; d marks the D form. Peptide text beside a SMILES is read from it. Cit = NC(=O)NCCC[C@H](N)C(=O)O

Use the examples below as a reference point.
- COMPOUND: "CC[C@H](C)[C@H](NC(=O)[C@H](CC(=O)O)NC(=O)[C@@H](NC(=O)[C@@H](NC(=O)[C@@H]1CCCN1C(=O)[C@H](CC(C)C)NC(=O)[C@H](CCCNC(=N)N)NC(=O)[C@H](CO)NC(=O)[C@@H](NC(=O)[C@H](CCCCN)NC(=O)[C@H](CCC(N)=O)NC(=O)[C@H](CO)NC(=O)[C@H](CCCNC(N)=O)NC(=O)[C@H](Cc1ccc(O)cc1)NC(=O)[C@@H](N)CCC(=O)O)[C@@H](C)O)[C@@H](C)CC)[C@@H](C)CC)C(=O)O [EYXSQKTSRLPIIDI] (H-EY[Cit]SQKTSRLPIIDI-OH)"
  IC50: "314 nM"
- COMPOUND: "CSCC[C@H](NC(=O)[C@H](Cc1ccc(O)cc1)NC(=O)[C@H](CCC(N)=O)NC(=O)[C@H](CC(C)C)NC(=O)[C@@H]1CCCN1C(=O)[C@H](CC(=O)O)NC(=O)[C@@H]1CCCN1C(=O)CNC(=O)[C@H](CCCCN)NC(=O)[C@H](CCC(=O)O)NC(=O)[C@H](CCCNC(=N)N)NC(=O)[C@@H]1CCCN1C(=O)CNC(=O)[C@@H](N)CC(C)C)C(=O)N[C@@H](CCCNC(N)=O)C(=O)O [LGPREKGPDPLQYMX] (H-LGPREKGPDPLQYM[Cit]-OH)"
  IC50: "> 40000 nM"

Consider the additional compound presented here.
// query IC50 value for entry CC[C@H](C)[C@H](NC(=O)[C@@H](NC(=O)[C@@H](NC(=O)[C@H](CCCCN)NC(=O)CN)[C@@H](C)O)C(C)C)C(=O)N[C@@H](CCC(=O)O)C(=O)N[C@@H](Cc1ccc(O)cc1)C(=O)N[C@@H](CCCNC(N)=O)C(=O)N[C@@H](CO)C(=O)N[C@@H](CCC(N)=O)C(=O)N[C@@H](CCCCN)C(=O)N[C@H](C(=O)N[C@@H](CO)C(=O)N[C@@H](CCCNC(=N)N)C(=O)N[C@@H](CC(C)C)C(=O)O)[C@@H](C)O [GKTVIEYXSQKTSRL] (H-GKTVIEY[Cit]SQKTSRL-OH)
646 nM
